ASSAY TEXT: yeast display, Sf9 membrane polyspecificity reagent, FACS + sequencing; frameworks hold sequencing errors
READOUT: polyreactivity (PSR sort gate)

Reference set (5 entries):
SEQUENCE CHAIN: QVQLVESGGGLVQAGGSLRLSCAASGSTFKPYAMGWYRQAPGKERELVAAISKSGGSTRYADSVKGRFTISRDNAKNTVYLQMNSLKPEDTAVYYCAADYIYVKYEYWGQGTQVTVSS
polyreactivity (PSR sort gate): high polyreactivity

SEQUENCE CHAIN: QVQHVESGGGLVQAGGSLRLSCAASGSIFRYYVMGWYSQAPGKERELGAAISSGGRTYYADSVKGRFTISRDNAKNTVYLQMNSLKPEDTAVYYCNAQGLFYWEMDYWGQGTQVTVSS
polyreactivity (PSR sort gate): high polyreactivity

SEQUENCE CHAIN: QVQLVESGGGLVQAGGSLRLSCAASGRIFSRYTMGWYRQAPGKERELVATIRISGGNTYYADSVKGRFTISRDNAKNTVYLQMNSLKPDDTAVYYCAARYGWVQNTYTMYFWGQGTQVTVSS
polyreactivity (PSR sort gate): high polyreactivity

SEQUENCE CHAIN: QVQLVESGGGLVQAGGSLRLSCAASGSIFYSYAMGWYRQAPGKERELVAAINWSGGSTYYADSVKGRFTISRDNAKNTVYLQMKSLKPEDTAVYYCAADYGWGPIYDYWGQGTQVTVSS
polyreactivity (PSR sort gate): low polyreactivity

SEQUENCE CHAIN: QVHLVQTGGGLVQAGGSLRLSCAASGRIFRTNGMGWYRQAPGKERELVAAISSGDSTYYADSVKVRFTISRDNAKNTVYLQMNSLKPEDTAVYYCAADFGRKGGPGYDYWGQGTQVTVSS
polyreactivity (PSR sort gate): low polyreactivity

Read off the recorded polyreactivity (PSR sort gate) for QVHLVESGGGLVQAGGSLRLSCAASGSTIDYKAMGWYRQAPGKERELVAAITTIGGSTYYADSVKGRFTISRDNAKNTVYLQMNSLKPEDTAVYYCAADLRVWGRSGYDYWGQGTQVTVSS
low polyreactivity

Read off the recorded polyreactivity (PSR sort gate) for QVQLVESGGGLVQAGGSHRLSCAASGRTFKGNAMGWYRQAPGQERELVAAISSRGGRTFYADSVKGRYTISRDNAKNTVYLQMNSLKPDDTAVYDCAAYSPLTKTPDSPVRYDYWGQGTQVTVSS
high polyreactivity

Read off the recorded polyreactivity (PSR sort gate) for QVQLVESGGGLVQAGGSLRLSCAASGRTFNYNAMGWYRQAPGKERELVAAISWGGGSTFYAVSEKGRFTISRDNAKNTVYLQMNTLKPEDTAVYYCAADRQYGNRGAYYYWGQGTQVTVSS
low polyreactivity

Read off the recorded polyreactivity (PSR sort gate) for QDQLGESGGGLVQAGGSLRLTCAASGFIFSNNAMGWYRPSPGKERELVAAISGSGVSTYYADSVKGRFTISRDNAKNTVYLQMNSLKPEDTAVYYCAASASLRHDYWGQGTQVTVSS
high polyreactivity

Read off the recorded polyreactivity (PSR sort gate) for QVQLEESGGCLVQAGGSLRLSCAASGITFVLYAMGWYRQAPGTERELVAAINIDGNTNYADSVKGRFTISRDNAKNTVYLQMNSLKPEDTAVYYCAATFVPAQSRYTCSKYDYWGQGTQVTVSS
low polyreactivity

Read off the recorded polyreactivity (PSR sort gate) for QVQLEESGGGLVQAGGSLRLSCAAAGINFTYYAMGWYRQAPGKERELVAAISYRGGSTYADSVKGRFTISRDNAKNTVYLPMNSLKPEDTAVYYFAADSPVPDSGEGYWGQGTQVTVSS
high polyreactivity
